The measured values listed here are drawn from ChEMBL document CHEMBL1143201.

Target: Muscarinic acetylcholine receptor M1 (Homo sapiens, UniProt P11229)
Sequence (P11229 whole entry): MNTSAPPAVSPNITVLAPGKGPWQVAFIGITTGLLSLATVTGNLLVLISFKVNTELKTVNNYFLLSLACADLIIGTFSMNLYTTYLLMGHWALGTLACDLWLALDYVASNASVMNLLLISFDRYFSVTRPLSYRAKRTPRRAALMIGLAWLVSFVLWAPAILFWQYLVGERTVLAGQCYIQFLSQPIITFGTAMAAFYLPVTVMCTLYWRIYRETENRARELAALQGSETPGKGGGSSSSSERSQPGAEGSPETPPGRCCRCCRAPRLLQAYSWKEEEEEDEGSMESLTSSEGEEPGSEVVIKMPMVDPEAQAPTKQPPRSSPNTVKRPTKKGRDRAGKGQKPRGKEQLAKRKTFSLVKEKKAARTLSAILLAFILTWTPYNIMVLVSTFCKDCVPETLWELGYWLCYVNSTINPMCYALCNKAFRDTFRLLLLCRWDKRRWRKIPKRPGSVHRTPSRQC
Assay: Displacement of [3H]NMS from human muscarinic M1 receptor expressed in CHO cells at pH 8 in continuous presence of radioligand
Assay type: cell-based
For each entry below, report its pIC50 value.
Numbers only, as −log10 of the molar value.

CN1CCC=C(c2nsnc2OCCCCn2cccc2)C1; 6.66

Next molecule, pIC50 to be filled in.
Q: Request body: readout pIC50, system Muscarinic acetylcholine receptor M1 (Homo sapiens, UniProt P11229), query CN1CCC=C(c2nsnc2OCCCCn2ccnc2)C1 . Return the value.
A: 6.06

====

Target: UniProt:P11229
Test: Displacement of [3H]NMS from human muscarinic M1 receptor expressed in CHO cells at pH 6 in continuous presence of radioligand
Type: cell-based
For each entry below, report its IC50 value.
Write your answer as a measured quantity: the number, then the unit.

CN1CCC=C(c2nsnc2OCCCCn2ccnc2)C1; 2290 nM

Next compound, IC50 to be filled in.
Q: Request body: readout IC50, system UniProt:P11229, query CN1CCC=C(c2nsnc2OCCCCn2cccc2)C1 . Return the value.
A: 407 nM

====

For each entry below, report its pIC50 value.
Target: Muscarinic acetylcholine receptor M1 (Homo sapiens)
Sequence (P11229 whole entry): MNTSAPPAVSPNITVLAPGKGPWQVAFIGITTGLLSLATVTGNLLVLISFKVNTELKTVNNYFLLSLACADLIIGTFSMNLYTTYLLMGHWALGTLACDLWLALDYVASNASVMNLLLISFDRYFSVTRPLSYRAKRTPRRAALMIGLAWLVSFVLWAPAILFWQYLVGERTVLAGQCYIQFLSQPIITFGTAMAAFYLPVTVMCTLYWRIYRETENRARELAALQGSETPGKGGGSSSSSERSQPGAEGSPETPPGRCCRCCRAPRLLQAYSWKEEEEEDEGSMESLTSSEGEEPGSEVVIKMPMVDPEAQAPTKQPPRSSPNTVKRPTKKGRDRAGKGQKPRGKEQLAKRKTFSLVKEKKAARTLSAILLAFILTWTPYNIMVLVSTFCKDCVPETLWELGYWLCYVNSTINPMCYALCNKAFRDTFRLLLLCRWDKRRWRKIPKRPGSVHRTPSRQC
Experiment: Displacement of [3H]NMS from human muscarinic M1 receptor expressed in CHO cells at pH 8 by wash-resistant binding method
Format: cell-based
Answers are plain numbers, as −log10 of the molar value.

CN1CCC=C(c2nsnc2OCCCCn2ccnc2)C1; 4.27

Q: Request body: readout pIC50, system Muscarinic acetylcholine receptor M1 (Homo sapiens), query CN1CCC=C(c2nsnc2OCCCCn2cccc2)C1 . Return the value.
A: 4.92

====

Target: Muscarinic acetylcholine receptor M1 (Homo sapiens)
Test: Displacement of [3H]NMS from human muscarinic M1 receptor expressed in CHO cells in continuous presence of radioligand
Assay type: cell-based
pIC50: −log10 of the molar value.
The label depends only on pIC50: YES if it is at least 6, NO if it is smaller.

CN1CCC=C(c2nsnc2OCCCCCCN)C1; YES
CN1CCC=C(c2nsnc2OCCCCCN)C1; NO

For the next question, use this compound.
Q: Could you verify whether the entry CN1CCC=C(c2nsnc2OCCCCn2cccc2)C1 shows pIC50 of no less than 6?
A: YES

====

Biological target: Muscarinic acetylcholine receptor M1 (Homo sapiens)
Experiment: Displacement of [3H]NMS from human muscarinic M1 receptor expressed in CHO cells by wash-resistant binding method
Assay type: cell-based
For each entry below, report its IC50 value.
Give bare numbers, in µM.

See these solved cases before continuing.
CN1CCC=C(c2nsnc2OCCCCn2cccc2)C1; 28.8
CN1CCC=C(c2nsnc2OCCCCCN)C1; 44.7

Dear colleague, could you send me IC50 for each of the items below? Thanks.
1. CN1CCC=C(c2nsnc2OCC#Cc2ccccc2)C1
2. CN1CCC=C(c2nsnc2OCCCCn2ccnc2)C1
3. CN1CCC=C(c2nsnc2OCCCCCCN)C1
4. CN1CCC=C(c2nsnc2OCCN)C1
5. CN1CCC=C(c2nsnc2OCCCN)C1

A:
1. 2.14
2. 52.5
3. 3.98
4. 110
5. 14.8

====

Molecular target: Muscarinic acetylcholine receptor M1 (Homo sapiens)
Experiment: Displacement of [3H]NMS from human muscarinic M1 receptor expressed in CHO cells in continuous presence of radioligand
Format: cell-based
readout.kind: pIC50
Numbers only, as −log10 of the molar value.

See these solved cases before continuing.
CN1CCC=C(c2nsnc2OCCN)C1; 6.00
CN1CCC=C(c2nsnc2OCCCN)C1; 6.79
CN1CCC=C(c2nsnc2OCCCCN)C1; 4.11

Dear colleague, could you send me pIC50 for each of the items below? Thanks.
1. CN1CCC=C(c2nsnc2OCCCCO)C1
2. CN1CCC=C(c2nsnc2OCC(=O)O)C1

A:
6.51
6.21

Dear colleague, could you send me pIC50 for each of the items below? Thanks.
1. CCOC(=O)CCCCOc1nsnc1C1=CCCN(C)C1
2. CCCOc1nsnc1C1=CCCN(C)C1
3. CN1CCC=C(c2nsnc2OCCCCn2ccnc2)C1
4. CN1CCC=C(c2nsnc2OCC#Cc2ccccc2)C1
5. CCOc1nsnc1C1=CCCN(C)C1

A:
1. 7.23
2. 7.28
3. 6.06
4. 7.43
5. 6.85

Dear colleague, could you send me pIC50 for each of the items below? Thanks.
1. CNCCCCOc1nsnc1C1=CCCN(C)C1
2. CN1CCC=C(c2nsnc2OCCCO)C1
3. CN1CCC=C(c2nsnc2OCCO)C1

A:
5.15
5.42
5.97
